# experiment-notes: In vivo pharmacokinetic study, single intraperitoneal/oral dose, plasma concentration by RP-HPLC
# Set-up: species or system New Zealand White rabbits
# run-conditions: both sexes, New Zealand White, plasma, 4.85 mg/kg; derivative 2, single oral dose 7.28 mg/1.5 kg rabbit, mean ± SEM, n = 5; read-out: t1/2 (elimination half-life) (converted)
property-name: half-life (h)
// units = h; emit number, no label

Please report the recorded half-life for COc1ccc(/C=C/C(=O)c2cc(OC)c(OC)c(OC)c2)cc1 .
93.3

====

# experiment-notes: In vivo pharmacokinetic study, single intraperitoneal/oral dose, plasma concentration by RP-HPLC
# Design: species or system New Zealand White rabbits
# run-conditions: both sexes, New Zealand White, plasma, ip; derivative 1, single intraperitoneal dose 5.46 mg/1.5 kg rabbit, linear trapezoidal method, mean ± SEM, n = 6; read-out: AUC0–48 (area under the total plasma concentration–time curve)
property-name: AUC(0-t) (ng·h/mL)
// units = ng·h/mL; emit number, no label

Please report the recorded AUC(0-t) for COc1ccc(/C=C/C(=O)c2cc(OC)ccc2OC)cc1 .
2940

====

# experiment-notes: In vivo pharmacokinetic study, single intraperitoneal/oral dose, plasma concentration by RP-HPLC
# Set-up: species or system New Zealand White rabbits
# run-conditions: both sexes, New Zealand White, ip; derivative 1, single intraperitoneal dose 5.46 mg/1.5 kg rabbit (text: 3.84 mg/kg), plasma, mean ± SEM, n = 6; read-out: Cmax (peak plasma concentration)
property-name: Cmax (ng/mL)
// units = ng/mL; emit number, no label

Please report the recorded Cmax for COc1ccc(/C=C/C(=O)c2cc(OC)ccc2OC)cc1 .
1960

====

# experiment-notes: In vivo pharmacokinetic study, single intraperitoneal/oral dose, plasma concentration by RP-HPLC
# Parameters: species or system New Zealand White rabbits
# run-conditions: both sexes, New Zealand White, plasma, 4.85 mg/kg; derivative 2, single oral dose 7.28 mg/1.5 kg rabbit, linear trapezoidal method, mean ± SEM, n = 5; read-out: AUC0–48 (area under the total plasma concentration–time curve)
# From the text: The ten healthy adult New Zealand White rabbits weighing between 1.75–2.75 kg of either sex were procured from the institute Advanced Facility for Small Animal Research, PGIMER Chandigarh, after approval from the Institutional Animal Ethics Committee Ref. No. 69/IAEC/418 as per the Committee for the Purpose of Control and Supervision of Experiments on Animals (CPCSEA) guidelines. […]
property-name: AUC(0-t) (µg·h/mL)
// units = µg·h/mL; emit number, no label

Please report the recorded AUC(0-t) for COc1ccc(/C=C/C(=O)c2cc(OC)c(OC)c(OC)c2)cc1 [Derivative 2] .
3760

====

# experiment-notes: In vivo pharmacokinetic study, single intraperitoneal/oral dose, plasma concentration by RP-HPLC
# Design: species or system New Zealand White rabbits
# run-conditions: both sexes, New Zealand White; derivative 3, single oral dose 5.46 mg/1.5 kg rabbit (3.64 mg/kg), plasma, mean ± SEM, n = 6; read-out: Cmax (peak plasma concentration)
property-name: Cmax (ng/mL)
// units = ng/mL; emit number, no label

Please report the recorded Cmax for COc1ccc(/C=C/C(=O)c2cc(OC)c(OC)c(OC)c2)cc1OC .
3740

====

# experiment-notes: In vivo pharmacokinetic study, single intraperitoneal/oral dose, plasma concentration by RP-HPLC
# Design: species or system New Zealand White rabbits
# run-conditions: both sexes, New Zealand White, ip; derivative 1, single intraperitoneal dose 5.46 mg/1.5 kg rabbit, plasma, mean ± SEM, n = 6; read-out: C0 (concentration of administrated drug at time zero)
property-name: C0 (ng/mL)
// units = ng/mL; emit number, no label

Please report the recorded C0 for COc1ccc(/C=C/C(=O)c2cc(OC)ccc2OC)cc1 .
966

====

# experiment-notes: In vivo pharmacokinetic study, single intraperitoneal/oral dose, plasma concentration by RP-HPLC
# Design: species or system New Zealand White rabbits
# run-conditions: both sexes, New Zealand White; derivative 2, single oral dose 7.28 mg/1.5 kg rabbit (4.85 mg/kg), plasma, mean ± SEM, n = 5; read-out: Cmax (peak plasma concentration)
property-name: Cmax (µg/mL)
// units = µg/mL; emit number, no label

Please report the recorded Cmax for COc1ccc(/C=C/C(=O)c2cc(OC)c(OC)c(OC)c2)cc1 .
69.9

====

# experiment-notes: In vivo pharmacokinetic study, single intraperitoneal/oral dose, plasma concentration by RP-HPLC
# Parameters: species or system New Zealand White rabbits
# run-conditions: both sexes, New Zealand White, 3.64 mg/kg; derivative 3, single oral dose 5.46 mg/1.5 kg rabbit, plasma, mean ± SEM, n = 6; read-out: C0 (concentration of administrated drug at time zero)
property-name: C0 (ng/mL)
// units = ng/mL; emit number, no label

Please report the recorded C0 for COc1ccc(/C=C/C(=O)c2cc(OC)c(OC)c(OC)c2)cc1OC .
944

====

# experiment-notes: In vivo pharmacokinetic study, single intraperitoneal/oral dose, plasma concentration by RP-HPLC
# Design: species or system New Zealand White rabbits
# run-conditions: both sexes, New Zealand White, plasma, 3.64 mg/kg; derivative 3, single oral dose 5.46 mg/1.5 kg rabbit, mean ± SEM, n = 6; read-out: t1/2 (elimination half-life) (converted)
property-name: half-life
Numeric answer plus unit only.

Please report the recorded half-life for COc1ccc(/C=C/C(=O)c2cc(OC)c(OC)c(OC)c2)cc1OC .
13.3 h

====

# experiment-notes: In vivo pharmacokinetic study, single intraperitoneal/oral dose, plasma concentration by RP-HPLC
# Parameters: species or system New Zealand White rabbits
# run-conditions: both sexes, New Zealand White, rabbit, plasma, po, 4.85 mg/kg, derivative 2, single oral dose 7.28 mg/1.5 kg rabbit (4.85 mg/kg), mean ± SEM, n = 5; read-out: tmax (time to reach the peak plasma concentration)
property-name: Tmax
Numeric answer plus unit only.

Please report the recorded Tmax for COc1ccc(/C=C/C(=O)c2cc(OC)c(OC)c(OC)c2)cc1 .
3.84 h

====

# experiment-notes: In vivo pharmacokinetic study, single intraperitoneal/oral dose, plasma concentration by RP-HPLC
# Design: species or system New Zealand White rabbits
# run-conditions: both sexes, New Zealand White, plasma, 3.64 mg/kg; derivative 3, single oral dose 5.46 mg/1.5 kg rabbit, linear trapezoidal method, mean ± SEM, n = 6; read-out: AUC0–48 (area under the total plasma concentration–time curve)
property-name: AUC(0-t) (ng·h/mL)
// units = ng·h/mL; emit number, no label

Please report the recorded AUC(0-t) for COc1ccc(/C=C/C(=O)c2cc(OC)c(OC)c(OC)c2)cc1OC [Derivative 3] .
14200

====

# experiment-notes: In vivo pharmacokinetic study, single intraperitoneal/oral dose, plasma concentration by RP-HPLC
# Design: species or system New Zealand White rabbits
# run-conditions: both sexes, New Zealand White, plasma, ip; derivative 1, single intraperitoneal dose 5.46 mg/1.5 kg rabbit, mean ± SEM, n = 6; read-out: t1/2 (elimination half-life) (converted)
property-name: half-life (h)
// units = h; emit number, no label

Please report the recorded half-life for COc1ccc(/C=C/C(=O)c2cc(OC)ccc2OC)cc1 .
12.6
